B1: CPEB3 Ribozyme (parent)
chain: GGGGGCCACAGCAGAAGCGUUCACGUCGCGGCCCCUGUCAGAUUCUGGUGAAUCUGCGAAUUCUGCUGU

# Variants of: B1
# testDescription: self-cleavage, relative activity (ratio to wild type); higher = more cleavage; co-transcriptional
Threshold check on self-cleavage: at or above 0.3 gives Condition met, strictly below gives Condition not met.

>  <variantCode>
C18G G30U

>  <cat>
Condition not met

$$$$
>  <variantCode>
G5U G50U

>  <cat>
Condition met

$$$$
>  <variantCode>
G2A C29G

>  <cat>
Condition not met

$$$$
>  <variantCode>
C22A G58U

>  <cat>
Condition not met

$$$$
>  <variantCode>
C24G U44A

>  <cat>
Condition met

$$$$
>  <variantCode>
G17C G19C

>  <cat>
Condition not met

$$$$
>  <variantCode>
G31C A60U

>  <cat>
Condition not met

$$$$
>  <variantCode>
A59U U61A

>  <cat>
Condition met

$$$$
>  <variantCode>
C35A U53A

>  <cat>
Condition not met

$$$$
>  <variantCode>
C32A U61A

>  <cat>
Condition met

$$$$
>  <variantCode>
C12A U61C

>  <cat>
Condition not met

$$$$
>  <variantCode>
C54A U55A

>  <cat>
Condition met

$$$$
>  <variantCode>
A16G G31C

>  <cat>
Condition not met

$$$$
>  <variantCode>
C12U C54A

>  <cat>
Condition met

$$$$
>  <variantCode>
G31C U67G

>  <cat>
Condition met

$$$$
>  <variantCode>
A52U A59U

>  <cat>
Condition met

$$$$
>  <variantCode>
A15G C27A

>  <cat>
Condition met

$$$$
>  <variantCode>
C6A G25C

>  <cat>
Condition not met

$$$$
>  <variantCode>
G31U U46G

>  <cat>
Condition met

$$$$
>  <variantCode>
G1A G68C

>  <cat>
Condition not met

$$$$
>  <variantCode>
G31C C33G

>  <cat>
Condition met

$$$$
>  <variantCode>
C6G G19A

>  <cat>
Condition not met

$$$$
>  <variantCode>
A59C U64G

>  <cat>
Condition met

$$$$
>  <variantCode>
G3C C22U

>  <cat>
Condition not met

$$$$
>  <variantCode>
C12G U53G

>  <cat>
Condition met

$$$$
>  <variantCode>
C7U A51U

>  <cat>
Condition met

$$$$
>  <variantCode>
U38G U69G

>  <cat>
Condition met

$$$$
>  <variantCode>
C24G C34U

>  <cat>
Condition met

$$$$
>  <variantCode>
U20A U43G

>  <cat>
Condition not met

$$$$
>  <variantCode>
G31C C66A

>  <cat>
Condition not met

$$$$
>  <variantCode>
G4A C45U

>  <cat>
Condition met

$$$$
>  <variantCode>
C34U A60U

>  <cat>
Condition met

$$$$
>  <variantCode>
G1C G37C

>  <cat>
Condition not met

$$$$
>  <variantCode>
G17C U49C

>  <cat>
Condition not met

$$$$
>  <variantCode>
C32G A40U

>  <cat>
Condition not met

$$$$
>  <variantCode>
G11A U46C

>  <cat>
Condition met

$$$$
>  <variantCode>
C24U A42G

>  <cat>
Condition met

$$$$
>  <variantCode>
A23U U26A

>  <cat>
Condition met

$$$$
>  <variantCode>
G2U U21A

>  <cat>
Condition not met

$$$$
>  <variantCode>
C45U G56U

>  <cat>
Condition met

$$$$
>  <variantCode>
C24U G48U

>  <cat>
Condition met

$$$$
